Target Or System: T1, cynomolgus CD73 on the cell surface (293T/17-cynoCD73 cells) (cynomolgus (Macaca fascicularis), UniProt P21589 27-547 (human entry))
T1 construct: it is an ecto-domain with a His tag
T1 chain: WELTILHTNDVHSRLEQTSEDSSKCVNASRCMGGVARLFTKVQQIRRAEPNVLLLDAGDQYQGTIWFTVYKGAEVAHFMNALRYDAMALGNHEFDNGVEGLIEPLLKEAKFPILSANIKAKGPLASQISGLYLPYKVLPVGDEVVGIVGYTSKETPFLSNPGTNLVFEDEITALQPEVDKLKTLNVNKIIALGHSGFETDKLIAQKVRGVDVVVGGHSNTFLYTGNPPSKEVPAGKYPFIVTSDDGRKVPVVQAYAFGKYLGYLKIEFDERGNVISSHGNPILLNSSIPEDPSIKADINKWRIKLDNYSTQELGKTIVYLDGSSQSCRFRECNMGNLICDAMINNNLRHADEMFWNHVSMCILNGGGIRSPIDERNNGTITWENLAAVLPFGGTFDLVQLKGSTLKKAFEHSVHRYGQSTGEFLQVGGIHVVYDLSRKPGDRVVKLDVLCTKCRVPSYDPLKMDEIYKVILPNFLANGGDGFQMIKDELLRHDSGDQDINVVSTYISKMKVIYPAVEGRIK
Test: flow cytometry on 293T/17-Cyno CD73 cells, curve fit
Recorded Top, one value per entry.

Consider the reported Top for these binders:
binder="JB24H3L3 (antibody, human IgG1, kappa, V domains shown, Humanized antibody of JB24Chi, human IgG1 / kappa) VH: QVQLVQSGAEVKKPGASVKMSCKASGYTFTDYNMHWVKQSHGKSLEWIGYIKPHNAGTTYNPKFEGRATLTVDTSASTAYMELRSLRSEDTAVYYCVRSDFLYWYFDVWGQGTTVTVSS VL: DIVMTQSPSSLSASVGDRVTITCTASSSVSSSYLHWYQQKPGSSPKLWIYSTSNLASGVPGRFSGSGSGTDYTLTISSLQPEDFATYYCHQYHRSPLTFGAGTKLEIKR" obs_value="34 fluorescence"
binder="JB24H3L2 (antibody, human IgG1, kappa, V domains shown, Humanized antibody of JB24Chi, human IgG1 / kappa) VH: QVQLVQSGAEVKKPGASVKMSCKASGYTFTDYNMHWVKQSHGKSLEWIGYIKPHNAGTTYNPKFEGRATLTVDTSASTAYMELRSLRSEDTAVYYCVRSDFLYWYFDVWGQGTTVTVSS VL: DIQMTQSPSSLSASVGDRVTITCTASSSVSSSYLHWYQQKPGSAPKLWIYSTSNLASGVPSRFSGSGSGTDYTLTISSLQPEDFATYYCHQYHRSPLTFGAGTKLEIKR" obs_value="48.7 fluorescence"
binder="JB94H3L3 (antibody, human IgG1, kappa, V domains shown, Humanized antibody of the 94 clone, human IgG1 / kappa) VH: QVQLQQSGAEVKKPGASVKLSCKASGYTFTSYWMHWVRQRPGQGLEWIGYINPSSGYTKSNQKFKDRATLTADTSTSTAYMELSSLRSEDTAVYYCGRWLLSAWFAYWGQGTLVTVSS VL: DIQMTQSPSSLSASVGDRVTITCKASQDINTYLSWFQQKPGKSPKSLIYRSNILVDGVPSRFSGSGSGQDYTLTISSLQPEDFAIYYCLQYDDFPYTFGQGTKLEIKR" obs_value="125 fluorescence"

From here, focus on the item given below.
Recorded Top for JB24Chi (antibody, human IgG1, kappa, V domains shown, Phage antibody, chimeric human IgG1 / human kappa full chains) VH: QVQLQQSGLELVKPGASVKMSCKASGYTFTDYNMHWVKQSHGKSLEWIGYIKPHNGGTTYNPKFEGKATLTVNKSSSTAYMELRSLTSEDSAVYYCVRCDFLYWYFDVWGTGTTVTVSS VL: DIVMTQSPAIMSASLGERVTMTCTASSSVSSSYLHWYQQKPGSSPKLWIYSTSNLASGVPGRFSGSGSGTSYSLTISSMEAEDAATYYCHQYHRSPLTFGAGTKLEMKR , please?
68.5 fluorescence
